The reported measurements were obtained from ChEMBL document CHEMBL4354819.

Reported values of inhibition for individual entries
subject_of_test: Toll-like receptor 8 (Homo sapiens)
assay_info: Inhibition of human TLR8 expressed in HEK293 cells assessed as reduction in R848-induced NFkappaB production at 1.5 to 5 uM incubated for 16 hrs by quanti-blue SEAP assay
Type: cell-based

Known results for compounds:
input: Could you share what inhibition was measured for `O=S(=O)(Nc1ccc(Oc2cc(C(F)(F)F)cc(C(F)(F)F)c2)cc1)c1c(F)cccc1Cl` , tested on Toll-like receptor 8 (Homo sapiens)?
output: 0%

input: Field entry: `Cc1nnc(-c2ccc(C(=O)Oc3cccc(Cl)c3C#N)cc2)o1`
output: 0%

input: // query: `O=S(=O)(Nc1ccc(Oc2cc(C(F)(F)F)cc(C(F)(F)F)c2)cc1)c1ccccc1F`
output: 0%

input: Please give the result for `O=C(Nc1ccc(Oc2cc(C(F)(F)F)cc(C(F)(F)F)c2)cc1)c1ncccc1F` too.
output: 0%

input: What do we get for `O=C(Nc1ccc(Oc2cc(O)cc(C(F)(F)F)c2)cc1)c1c(F)cccc1Cl` ?
output: 0%

Others:
input: Tell me reported inhibition for `N#Cc1c(Cl)cccc1Oc1ccc(-c2ncco2)cc1` , tested with Toll-like receptor 8 (Homo sapiens).
output: 0%

input: Could you do the same for `O=C(Nc1ccc(Oc2cc(C(F)(F)F)cc(C(F)(F)F)c2)cc1)C1CCCCC1` , please?
output: 0%

input: Note, next up: `Fc1cccc(I)c1-c1nc2cc(Oc3cc(C(F)(F)F)cc(C(F)(F)F)c3)ccc2[nH]1`
output: 0%

input: Also `O=C(Nc1ccc(Oc2cc(C(F)(F)F)cc(C(F)(F)F)c2)cc1)c1c(F)c(F)c(F)c(F)c1F` , if possible.
output: 0%
